system: Human membrane-bound BAFF (mbBAFF) (human, UniProt Q9Y275 1-285)
method-description: cell-based or functional assay
parameter-measured: Potent mbBAFF Neutralization IC50 (pM)
The answer is to be given in pM; state only the numeric part.

Incoming: Fill in reported Potent mbBAFF Neutralization IC50 for this entry: 1070A6B7 (antibody, V domains shown) VH: QVPLQQPGAEMVRPGASMRLSCKASGYTFPGYWMHWVKQRPRQGLEWIAKIDPSDSETHYNQNFKDKATLTVDKYSNTVYMQLNSLTSEDSAVYYCANEGWDSLTKVWFGWWGQGTLVTVSA VL: DVVMTQTPLSLPVSLGDQASISCRCSQSLVHSNGNTYLHWYLQKPGQSPKLLIYKVSDRFSGVPDRFSGSGSGTDFTLRISRVEADDLGVYFCSQSTHVPLTFGAGTKLELK
Outgoing: 147

These measurements were taken from patent US20190309034A1.
